Where do the numbers come from? From patent US20240376151A1.

ASSAY_TARGET: RNF31 PUB domain (Homo sapiens, UniProt Q96EP0)
Construct: MBP-TEV (N, cleaved yes); made in house; host or cells: E. coli BL21 (DE3) pLysS
Sequence (Q96EP0 1-179): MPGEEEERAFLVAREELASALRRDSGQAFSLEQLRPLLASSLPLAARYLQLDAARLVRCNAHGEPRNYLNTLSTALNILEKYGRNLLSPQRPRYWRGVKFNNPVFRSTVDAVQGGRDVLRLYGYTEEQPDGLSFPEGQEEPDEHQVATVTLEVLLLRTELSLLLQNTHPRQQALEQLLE
PROTOCOL_DETAILS: Phage Library Screening with NGS, RNF31 PUB domain
Format: binding
CONDITION_DESCRIPTION: clusters C41-C45; BLANK screen, column 5 of 5
Ends that are not written are not given here.
MEASURED_PARAMETER: Phage library screen NGS readout, BLANK

# ENTRY_SEQUENCE, MEASURED_PARAMETER, VALUE
data = [
    ("DPAMIDCFLAAQVCATY (not fully specified; cysteine pairing not given here)", "Phage library screen NGS readout, BLANK", 0),
    ("DPAQMECIDAAIMCSYT", "Phage library screen NGS readout, BLANK", 0),
    ("DPAFTDCQLAAAVCMTY", "Phage library screen NGS readout, BLANK", 0),
    ("DPAADDCEWAALYCSFH", "Phage library screen NGS readout, BLANK", 3),
    ("DPAWTQCDWAALYCEDQ", "Phage library screen NGS readout, BLANK", 0),
    ("DPAYDWCLYAAEYCHTD", "Phage library screen NGS readout, BLANK", 0),
    ("DPALDYCLYAAYDCMYA", "Phage library screen NGS readout, BLANK", 0),
    ("DPAIWECVSAAAVCMTY", "Phage library screen NGS readout, BLANK", 0),
    ("DPAHTWCMYAAFDCFES", "Phage library screen NGS readout, BLANK", 0),
    ("DPAYEDCAWAALYCDMT", "Phage library screen NGS readout, BLANK", 0),
]

P = DPAIYQCSLAADICSTY
Q = DPALEICWDAAIQCSYV
Task: Thinking about recorded Phage library screen NGS readout, BLANK values, which is higher, P or Q ? # reply format: chosen label
Output: Q

A = DPAYWDCMYAAFYCDDI
B = DPAQDWCMYAAYECDAH
Task: Rank A against B by their Phage library screen NGS readout, BLANK values and give the higher one. Label of pick, please.
Output: A

A = DPAWWNCLYAADECWSW
B = DPAWWSCMYAAWTCDDT
Task: Decide: A or B , by lowest recorded Phage library screen NGS readout, BLANK. Lab note: record the label of whichever item you select.
Output: A

1 = DPAQDQCISAAVLCTYT
2 = DPAWLDCIYAAYDCVTD
Task: Between the two listed entries 1 and 2 , which has its Phage library screen NGS readout, BLANK at the higher number? Mark your selection by writing its label.
Output: 2
(2: 2, 1: 0)

###

Listing of recorded Helicon in cells ± SD (%) by entry.
Test system: Expi293 cells
PROTOCOL_DETAILS: Measurement of the Cell Association of Helicons (mass spectrometry quantification in cells after treatment and wash)
Assay type: cell-based
CONDITION_DESCRIPTION: percentage of Helicons in cells after treatment and wash, 22 hours, n = 2, mean ± SD
Answer with a number only, understood to be in %.

# COMPOUND, ASSAY_TARGET, Helicon in cells ± SD (%)
records = [
    ("CCCC[C@H](NC(=O)[C@H](Cc1ccc(O)cc1)NC(=O)[C@H](CCC(N)=O)NC(=O)[C@]1(C)CCCC=CCCCCCC[C@@](C)(NC(=O)[C@H](CCC(=O)O)NC(=O)[C@H](CC(C)C)NC(=O)[C@@H](NC(C)=O)[C@@H](C)CC)C(=O)N[C@@H](Cc2ccc(O)cc2)C(=O)N[C@@H](CCC(=O)O)C(=O)N[C@@H](C)C(=O)N[C@@H](C)C(=O)N[C@@H](Cc2ccccc2)C(=O)N[C@@H](CCC(=O)O)C(=O)N1)C(N)=O (single isomer, unassigned) [FP08018]", "Expi293 cells", 1.0),
]

Then this compound:
Query CCCC[C@H](NC(=O)[C@@H](NC(C)=O)C(C)C)C(=O)N[C@@H](CCC(=O)O)C(=O)N[C@]1(C)CCCCCCC=CCCC[C@@](C)(C(=O)N[C@@H](Cc2c[nH]cn2)C(=O)N[C@@H](Cc2ccc(O)cc2)C(=O)N[C@H](C(N)=O)C(C)C)NC(=O)[C@H]([C@@H](C)CC)NC(=O)[C@H](Cc2ccccc2)NC(=O)[C@H](C)NC(=O)[C@H](C)NC(=O)[C@H](CCC(=O)O)NC(=O)[C@H](Cc2ccc(O)cc2)NC1=O (single isomer, unassigned) [FP07855] yields Helicon in cells ± SD (%) of 16.4
